# credit: patent US20210371508A1

Listing: koff of selected binders
# target_entity: T1, recombinant human NMES1 protein (Normal Mucosa of Esophagus Specific 1) (human, UniProt Q9C002 1-83, limits assumed)
# T1 construct: also called rhNMES1; recombinant NMES1 protein
# assay_name: BLI (Octet), antibody on protein A biosensors, recombinant NMES1 0-900 nM, 1:1 fit
Field format: number, assumed s⁻¹, no unit text.

Below are worked cases with known answers.
binder	koff (s⁻¹)
NMES-7 anti-NMES1 monoclonal antibody (antibody, IgG1, V domains shown, also called NM-7; NMES1-7) VH: EVQLVQSGAEVKKPGASVKVSCKASGYTFNRDAISWVRQAPGQGLEWMGWISGYNGNTYYAHKVLGRATMTTDTSTNTAYMELRSLTSDDTAMYYCARVGLQPDTTMDHWGQGTLVTVSS VL: DIQMTQSPSSLSASVGDRVTITCRASQDIRNDLAWYQQKPGKAPKLLIYTASSLQTGVPSRFSGSGSGTDFTLSISSLQPEDFATYYCLQDYKYPLTFGGGTKLEIK	0.00595
NMES-1 anti-NMES1 monoclonal antibody (antibody, V domains shown, also called NM-1; NMES1-1) VH: QVQLVQSGGGVVQPGRSLRLSCAASGFTFSSYAMHWVRQAPGKGLEWVAVISYDGSNKYYADSVKGRFTISRDNSKNTLYLQMNSLRAEDTAVYYCARLSRFGDESLKDPDYWGQGTLVTVSS VL: DIVMTQSPLSLPVTLGQPASISCRSSQSLVHSDGNTYLNWFQQRPGQSPRRLIYKVSNRDSGVPDRFSGSGSGTDFTLKISRVEAEDVGVYYCMQGAHWPPTFGPGTKLEIK	0.00499
NMES-4 anti-NMES1 monoclonal antibody (antibody, IgG1, V domains shown, also called NM-4; NMES1-4) VH: EVQLVQSGGEVKKPGSSVKVSCKASGGTFSTYAISWVRQAPGQGLEWMGGIIPIFGTTNYAQKFQGRVTITADRSTSTAYMELSSLRSEDTAVYYCARVSELGDYYAMDVWGQGTTVTVSS VL: DIQMTQSPSSLSASVGDRVTITCRASQGIASALAWYQQKPGKAPKLLIYDASNLESGVPSRFSGSGSGTDFTLTISSLQPEDFATYYCQQAHSFPLTFGGGTKLEIK	0.00382
NMES-5 anti-NMES1 monoclonal antibody (antibody, IgG1, V domains shown, also called NM-5; NMES1-5) VH: QVQLVQSGAEVKKPGASVKVSCKASGYTFTSYGISWVRQAPGQGLEWMGWISAYNGNTNYAQKLQGRVTMTTDTSTSTAYMELRSLRSDDTAVYYCARATRGNAFDIWGQGTMVSVSS VL: QSALTQPASVSGSPGQSITISCTGTSSDVGAYNYVSWYQQHPGKAPKLMIYDVSNRPSGVSNRFSGSKSGNTASLTISGLQAEDEADYYCSSYTRSTTVVFGGGTKVTVL	0.00463

Turning to the following binder.
// lookup koff for NMES-10 anti-NMES1 monoclonal antibody (antibody, IgG1, V domains shown, also called NM-10; NMES1-10) VH: QVQLVQSGAEVKKPGASVKVSCKASGYTFTSYGISWVRQAPGQGLEWMGWISAYNGNTNYAQKLQGRVTMTTDTSTSTAYMELRSLRSDDTAVYYCARATFGNAFDIWGQGTTVTVSS VL: QSALTQPASVSGSPGQSITISCTGTSSDVGGYNYVSWYQQHPGKAPKLMIYDVSNRPSGVSNRFSGSKSGNTASLTISGLQAEDEADYYCSSYTSSSTLVVFGGGTKVTVL
0.0131
